Molecular target: Neuronal acetylcholine receptor subunit alpha-7 (Homo sapiens)
Sequence (P36544 whole entry): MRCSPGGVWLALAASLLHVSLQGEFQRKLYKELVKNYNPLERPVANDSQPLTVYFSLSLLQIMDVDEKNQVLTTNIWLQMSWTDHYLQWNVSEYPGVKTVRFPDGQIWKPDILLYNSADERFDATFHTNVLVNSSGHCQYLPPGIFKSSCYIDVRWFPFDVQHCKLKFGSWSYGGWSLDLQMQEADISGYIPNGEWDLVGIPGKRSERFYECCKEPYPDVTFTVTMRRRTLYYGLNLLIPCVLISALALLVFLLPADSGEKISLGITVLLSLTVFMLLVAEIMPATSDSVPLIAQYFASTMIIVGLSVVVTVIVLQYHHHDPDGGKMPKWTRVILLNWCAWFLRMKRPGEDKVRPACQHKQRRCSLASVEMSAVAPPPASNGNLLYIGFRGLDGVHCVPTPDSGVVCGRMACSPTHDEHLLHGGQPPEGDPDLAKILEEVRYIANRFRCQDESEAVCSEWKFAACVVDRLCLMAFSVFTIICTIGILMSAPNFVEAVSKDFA
Experiment: Agonist activity at human recombinant alpha7 nicotinic acetylcholine receptor expressed in xenopus laevis oocytes at 100 uM by parallel oocyte electrophysiological assay relative to acetylcholine
Format: functional, cell-based
I would appreciate it if you labelled entries 1 (yes) when Activity is 50% or higher, otherwise 0 (no).

Query string: Does the compound "c1ccc(-c2ccc(N3C[C@H]4CNC[C@H]4C3)nn2)cc1" have recorded Activity that is 50% or more?
Result string: 0 (no)

Query string: Determine whether this compound has Activity no lower than 50%: "CN1C[C@@H]2CN(c3ccc(-c4ccc5[nH]ccc5c4)nn3)C[C@@H]2C1"
Result string: 1 (yes)

====

Target: Neuronal acetylcholine receptor subunit alpha-7 (Rattus norvegicus, UniProt Q05941)
Sequence (Q05941 whole entry): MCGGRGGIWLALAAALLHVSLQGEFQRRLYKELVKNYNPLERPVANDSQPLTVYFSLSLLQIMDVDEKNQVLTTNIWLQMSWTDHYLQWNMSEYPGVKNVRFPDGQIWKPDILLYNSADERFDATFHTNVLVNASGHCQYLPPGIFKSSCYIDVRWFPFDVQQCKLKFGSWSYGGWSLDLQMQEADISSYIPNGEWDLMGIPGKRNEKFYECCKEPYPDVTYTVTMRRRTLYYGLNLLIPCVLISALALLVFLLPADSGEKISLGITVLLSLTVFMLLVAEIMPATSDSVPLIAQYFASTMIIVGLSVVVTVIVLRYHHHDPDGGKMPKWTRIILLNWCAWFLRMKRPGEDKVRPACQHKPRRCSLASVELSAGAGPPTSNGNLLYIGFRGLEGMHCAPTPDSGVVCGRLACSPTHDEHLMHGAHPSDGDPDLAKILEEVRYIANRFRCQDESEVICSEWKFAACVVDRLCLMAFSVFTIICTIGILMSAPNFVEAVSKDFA
Assay: Displacement of [3H]A585539 from alpha7 nicotinic acetylcholine receptor in rat brain minus cerebellum membrane
molecules and their reported Ki

| Entry smiles | Target or system | Metric name | Result value |
| --- | --- | --- | --- |
| CN1C[C@@H]2CN(c3cccnc3)C[C@@H]2C1 | Neuronal acetylcholine receptor subunit alpha-7 (Rattus norvegicus, UniProt Q05941) | Ki | 1.59 µM |
| CN1C[C@@H]2CN(c3ccc(-c4ccccc4)nn3)C[C@@H]2C1 | Neuronal acetylcholine receptor subunit alpha-7 (Rattus norvegicus, UniProt Q05941) | Ki | 0.0108 µM |

Next item in the queue.
Consider "Cc1cc(C)cc(-c2ccc(N3C[C@H]4CN(C)C[C@H]4C3)nn2)c1" . Its measured Ki is > 10 µM

====

Target: Neuronal acetylcholine receptor subunit alpha-7 (Rattus norvegicus, UniProt Q05941)
Experiment: Displacement of [3H]A585539 from alpha7 nicotinic acetylcholine receptor in rat brain minus cerebellum membrane
Metric name: pKi
Remember the convention: pKi equals -log10 of concentration in molar.

Known results for molecules:
| Entry smiles | Metric name | Result value |
| --- | --- | --- |
| Clc1ccc(N2C[C@H]3CNC[C@H]3C2)cn1 | pKi | 6.74 |
| Cc1cccc(-c2ccc(N3C[C@H]4CN(C)C[C@H]4C3)cn2)c1 | pKi | 8.17 |

Considering "CN1C[C@@H]2CN(c3ccc(-c4cccc([N+](=O)[O-])c4)nc3)C[C@@H]2C1" , its pKi with Neuronal acetylcholine receptor subunit alpha-7 (Rattus norvegicus, UniProt Q05941) was recorded as 7.52

Param item: "COc1cncc(N2C[C@H]3CNC[C@H]3C2)c1" ; param system: Neuronal acetylcholine receptor subunit alpha-7 (Rattus norvegicus, UniProt Q05941); output pKi: 6.62

Form: item "c1ccc(-c2ccc(N3C[C@H]4CNC[C@H]4C3)nn2)cc1" ; test system Neuronal acetylcholine receptor subunit alpha-7 (Rattus norvegicus, UniProt Q05941); pKi: 7.76

====

Target: Neuronal acetylcholine receptor subunit alpha-7 (Rattus norvegicus)
Assay: Displacement of [3H]A585539 from alpha7 nicotinic acetylcholine receptor in rat brain minus cerebellum membrane
Metric name: Ki

Record excerpt, results attached:
| Entry smiles | Result value |
| --- | --- |
| Cc1cccc(-c2ccc(N3C[C@H]4CN(C)C[C@H]4C3)nn2)c1 | 4.42 nM |
| CN1C[C@@H]2CN(c3ccc(-c4ccccc4)cc3)C[C@@H]2C1 | 12 nM |

Looking up "CN1C[C@@H]2CN(c3ccc(Cl)nc3)C[C@@H]2C1" , I found its Ki recorded as > 10000 nM

Noted for "CCCOc1cncc(N2C[C@H]3CNC[C@H]3C2)c1" : its Ki reads > 10000 nM

Reported Ki of "c1ccc(N2C[C@H]3CNC[C@H]3C2)nc1" : > 10000 nM

Value of Ki reported for the compound "Cc1ccc(-c2ccc(N3C[C@H]4CN(C)C[C@H]4C3)nn2)cc1" is 11.6 nM

Ki for "COc1cccc(-c2ccc(N3C[C@H]4CN(C)C[C@H]4C3)cn2)c1" is 5 nM

response.value for "c1ccc(-c2ccc(N3C[C@H]4CNC[C@H]4C3)cn2)cc1" (field: Ki) = 8.4 nM

Value of measured Ki for the entry "Brc1ccc(N2C[C@H]3CNC[C@H]3C2)cn1" : 290 nM

====

Molecular target: Neuronal acetylcholine receptor; alpha4/beta2 (Homo sapiens, UniProt P17787+P43681)
Assay: Agonist activity at human recombinant alpha4beta2 nicotinic acetylcholine receptor expressed in HEK293 cells assessed as changes in intracellular calcium level at 100 uM by FLIPR relative to nicotine
Type: functional, cell-based
Activity: recorded values

// field: Activity; key: "CCOc1cncc(N2C[C@H]3CNC[C@H]3C2)c1" ; value = 118%

Record "c1ccc(-c2ccc(N3C[C@H]4CNC[C@H]4C3)nn2)cc1" , field Activity: < 10%

The molecule identified as "CN1C[C@@H]2CN(c3ccc(-c4ccc5[nH]ccc5c4)nn3)C[C@@H]2C1" registered its Activity at < 10%

====

Species: Rattus norvegicus
Assay: Selectivity ratio of Ki for alpha7 nicotinic acetylcholine receptor to Ki for alpha4beta2 nicotinic acetylcholine receptor in rat brain minus cerebellum membrane
Type: tissue-based
Quick reference: Ratio Ki of the listed items.

Field: example entries. Status: answers known.
| Entry smiles | Result value |
| --- | --- |
| CN1C[C@@H]2CN(c3ccc(-c4ccccc4)nn3)C[C@@H]2C1 | > 9200 |
| C[N+]1(C)C[C@H]2CN(c3ccc(-c4ccccc4)nn3)C[C@H]2C1 | > 1600 |
| Cc1cccc(-c2ccc(N3C[C@H]4CN(C)C[C@H]4C3)nn2)c1 | > 22000 |

Entry under test: "c1cncc(N2C[C@H]3CNC[C@H]3C2)c1" . Its Ratio Ki was 420

Reported Ratio Ki ( "Cc1cccc(-c2ccc(N3C[C@H]4CN(C)C[C@H]4C3)cn2)c1" ) = 112

"CN1C[C@@H]2CN(c3ccc(-c4cccc([N+](=O)[O-])c4)nc3)C[C@@H]2C1" yielded Ratio Ki of 87

For reference, reported Ratio Ki for "CN1C[C@@H]2CN(c3ccc(-c4ccc(O)cc4)nn3)C[C@@H]2C1" stands at > 1800

Item: "CN1C[C@@H]2CN(c3ccc(-c4ccccc4)cn3)C[C@@H]2C1" | Ratio Ki: > 6000

# Ratio Ki (compound: "CN1C[C@@H]2CN(c3ccc(Cl)nc3)C[C@@H]2C1" ) is > 260

Measured Ratio Ki of "CCCOc1cncc(N2C[C@H]3CNC[C@H]3C2)c1" : > 240000

====

Target: Neuronal acetylcholine receptor; alpha4/beta2 (Rattus norvegicus, UniProt P09483+P12390)
Sequence (P09483 whole entry): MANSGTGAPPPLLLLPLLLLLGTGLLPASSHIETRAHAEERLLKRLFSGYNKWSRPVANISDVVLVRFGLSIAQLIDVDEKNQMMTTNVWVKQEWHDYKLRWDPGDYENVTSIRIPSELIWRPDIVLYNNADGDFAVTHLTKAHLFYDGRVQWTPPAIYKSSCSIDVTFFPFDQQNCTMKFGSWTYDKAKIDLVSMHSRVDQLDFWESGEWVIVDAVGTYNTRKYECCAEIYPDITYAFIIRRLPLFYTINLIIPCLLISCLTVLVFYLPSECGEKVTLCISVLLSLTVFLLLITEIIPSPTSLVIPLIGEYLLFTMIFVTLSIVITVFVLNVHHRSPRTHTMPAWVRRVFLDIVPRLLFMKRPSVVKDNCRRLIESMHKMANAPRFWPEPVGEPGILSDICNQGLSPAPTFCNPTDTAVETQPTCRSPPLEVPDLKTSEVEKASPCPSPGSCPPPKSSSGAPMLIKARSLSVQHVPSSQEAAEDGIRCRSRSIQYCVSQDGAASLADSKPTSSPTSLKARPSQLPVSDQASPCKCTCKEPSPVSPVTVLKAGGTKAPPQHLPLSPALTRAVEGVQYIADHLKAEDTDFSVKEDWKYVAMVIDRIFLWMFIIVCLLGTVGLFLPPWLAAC
Sequence (P12390 whole entry): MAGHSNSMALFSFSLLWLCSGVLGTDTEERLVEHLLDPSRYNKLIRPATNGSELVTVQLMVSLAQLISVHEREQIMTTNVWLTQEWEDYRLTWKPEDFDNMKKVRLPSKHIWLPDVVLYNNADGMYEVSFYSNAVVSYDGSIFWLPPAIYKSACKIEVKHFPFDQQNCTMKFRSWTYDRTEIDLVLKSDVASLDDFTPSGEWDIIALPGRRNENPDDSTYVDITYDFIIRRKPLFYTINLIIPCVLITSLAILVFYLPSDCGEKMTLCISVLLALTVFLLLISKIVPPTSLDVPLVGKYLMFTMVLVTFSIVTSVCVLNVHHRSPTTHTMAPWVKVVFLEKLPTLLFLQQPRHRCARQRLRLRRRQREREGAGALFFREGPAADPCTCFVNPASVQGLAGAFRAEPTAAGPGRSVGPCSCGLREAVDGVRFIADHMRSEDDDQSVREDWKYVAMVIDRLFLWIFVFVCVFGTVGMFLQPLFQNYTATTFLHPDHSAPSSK
Test: Displacement of [3H]cytisine from alpha4beta2 nicotinic acetylcholine receptor in rat brain minus cerebellum membrane
Metric name: Ki

| Entry smiles | Ki |
| --- | --- |
| CN1C[C@@H]2CN(c3cccnc3)C[C@@H]2C1 | 26 nM |
| Oc1cncc(N2C[C@H]3CNC[C@H]3C2)c1 | 0.75 nM |
| CCN1C[C@@H]2CN(c3ccc(-c4ccccc4)nn3)C[C@@H]2C1 | > 100000 nM |
| c1ccc(-c2cncc(N3C[C@H]4CNC[C@H]4C3)c2)cc1 | 0.16 nM |

Record "CCCOc1cncc(N2C[C@H]3CNC[C@H]3C2)c1" has Neuronal acetylcholine receptor; alpha4/beta2 (Rattus norvegicus, UniProt P09483+P12390) Ki equal to 0.041 nM

Readout Ki for "c1ccc(-c2ccc(N3C[C@H]4CNC[C@H]4C3)cn2)cc1" , test system Neuronal acetylcholine receptor; alpha4/beta2 (Rattus norvegicus, UniProt P09483+P12390), was 96 nM

Ki value, target or system Neuronal acetylcholine receptor; alpha4/beta2 (Rattus norvegicus, UniProt P09483+P12390), for "CN1C[C@@H]2CN(c3ccc(-c4ccccc4)nn3)C[C@@H]2C1" : > 100000 nM

====

Target: Neuronal acetylcholine receptor subunit alpha-7 (Rattus norvegicus)
Assay: Displacement of [3H]A585539 from alpha7 nicotinic acetylcholine receptor in rat brain minus cerebellum membrane
Metric name: pKi
Lab note: report pKi as minus log10 of the concentration in molar units, number only.

# example entries with known answers
| Entry smiles | pKi |
| --- | --- |
| c1cncc(N2C[C@H]3CNC[C@H]3C2)c1 | 7.29 |
| Cc1ccccc1-c1ccc(N2C[C@H]3CN(C)C[C@H]3C2)nn1 | 6.16 |
| CN1C[C@@H]2CN(c3ccc(-c4ccc5[nH]ccc5c4)nn3)C[C@@H]2C1 | 9.62 |
| CN1C[C@@H]2CN(c3ccc(-c4ccc(O)cc4)nn3)C[C@@H]2C1 | 8.28 |
| c1ccc(-c2cncc(N3C[C@H]4CNC[C@H]4C3)c2)cc1 | 5.34 |
| CN1C[C@@H]2CN(c3ccc(-c4cccc(O)c4)nn3)C[C@@H]2C1 | 8.10 |

Field: next compound
The measured pKi associated with "c1ccc(-c2ccc(N3C[C@H]4CNC[C@H]4C3)cc2)cc1" reads 7.55

====

Entries and their measured Ki follow.
Molecular target: Neuronal acetylcholine receptor; alpha4/beta2 (Rattus norvegicus, UniProt P09483+P12390)
Experiment: Displacement of [3H]cytisine from alpha4beta2 nicotinic acetylcholine receptor in rat brain minus cerebellum membrane
Express it in nM; write the number only.

compound "c1ccc(-c2ccc(N3C[C@H]4CNC[C@H]4C3)nn2)cc1" , Ki observed: 5320

// Ki value for "Cc1cccc(-c2ccc(N3C[C@H]4CN(C)C[C@H]4C3)cn2)c1" : 750

The reported value for "c1ccc(N2C[C@H]3CNC[C@H]3C2)nc1" in terms of Ki is 260

compound "CN1C[C@@H]2CN(c3ccc(-c4cccc(-c5ccccc5)c4)nc3)C[C@@H]2C1" , Ki observed: 9800

Sure, the documented Ki for "c1ncc(N2C[C@H]3CNC[C@H]3C2)cc1N1CCOCC1" is 47

Entry "CN1C[C@@H]2CN(c3ccc(Cl)nc3)C[C@@H]2C1" , Ki reported as 38

Query "CC(C)Oc1cncc(N2C[C@H]3CNC[C@H]3C2)c1" yields Ki of 0.051

// "Brc1cncc(N2C[C@H]3CNC[C@H]3C2)c1" : Ki value = 0.06

Noted for "c1cncc(N2C[C@H]3CNC[C@H]3C2)c1" : its Ki reads 0.12

Value source: ChEMBL document CHEMBL1137790
